SYSTEM_NAME: human CTLA-4 (human) (UniProt P16410)
Sequence (P16410 36-223): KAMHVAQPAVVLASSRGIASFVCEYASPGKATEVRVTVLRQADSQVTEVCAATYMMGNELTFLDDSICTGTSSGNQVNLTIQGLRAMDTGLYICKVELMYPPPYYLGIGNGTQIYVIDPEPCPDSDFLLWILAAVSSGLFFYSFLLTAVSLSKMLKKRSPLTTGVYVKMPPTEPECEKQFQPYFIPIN
MEASUREMENT_PROTOCOL: flow cytometry, CHO cells expressing CTLA4

BINDER	MFI at 33.3 nM
CD80 T13R/Q33R/E35D/M38I/M47L/V68M/E95V/L97Q IgV-Fc (Fc fusion) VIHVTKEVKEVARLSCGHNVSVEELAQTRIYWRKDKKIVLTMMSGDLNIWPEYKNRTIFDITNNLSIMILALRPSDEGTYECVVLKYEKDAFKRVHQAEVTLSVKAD	20700 MFI
CD80 E35D/M47V/N48K/V68M/L85M IgV-Fc (Fc fusion) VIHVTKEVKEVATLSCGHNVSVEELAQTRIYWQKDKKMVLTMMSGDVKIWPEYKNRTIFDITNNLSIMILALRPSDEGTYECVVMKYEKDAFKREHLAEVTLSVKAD	15600 MFI
